target: T1, rat DLL4 extracellular domain (rat, UniProt D3ZHH1 28-530); experiment: SPR (Biacore)
T1 construct: extracellular domain; also called ratDLL4 ECD
T1 sequence (D3ZHH1 28-530): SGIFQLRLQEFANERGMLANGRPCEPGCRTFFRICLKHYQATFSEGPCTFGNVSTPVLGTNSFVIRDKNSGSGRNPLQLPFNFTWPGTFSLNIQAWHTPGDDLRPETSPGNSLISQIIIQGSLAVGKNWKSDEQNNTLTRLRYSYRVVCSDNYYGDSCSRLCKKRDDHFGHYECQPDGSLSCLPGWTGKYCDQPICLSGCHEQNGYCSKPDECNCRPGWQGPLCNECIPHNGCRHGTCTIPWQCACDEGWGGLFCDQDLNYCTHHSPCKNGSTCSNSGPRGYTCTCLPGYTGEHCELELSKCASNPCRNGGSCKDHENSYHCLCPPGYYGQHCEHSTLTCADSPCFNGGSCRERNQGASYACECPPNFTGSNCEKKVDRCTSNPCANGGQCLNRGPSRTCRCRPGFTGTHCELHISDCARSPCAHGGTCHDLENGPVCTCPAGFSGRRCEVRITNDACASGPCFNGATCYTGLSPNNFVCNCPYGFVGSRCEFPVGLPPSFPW
A collection of binders and their measured kon
Numeric only. Scale: M⁻¹ s⁻¹

binder: h1A11.H2 (antibody, V domains shown, also called h1A11.H2 VH / h1A11.E12 VL) VH: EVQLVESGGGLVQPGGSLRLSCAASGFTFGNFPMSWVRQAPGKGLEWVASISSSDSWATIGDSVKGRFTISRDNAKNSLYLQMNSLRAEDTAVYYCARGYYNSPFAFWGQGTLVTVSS VL: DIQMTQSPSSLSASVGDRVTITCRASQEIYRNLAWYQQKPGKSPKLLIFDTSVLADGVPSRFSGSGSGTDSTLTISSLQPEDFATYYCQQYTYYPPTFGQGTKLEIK
readoutUnit: M⁻¹ s⁻¹
kon: 178000
//
binder: h1A11.A11 (antibody, V domains shown, also called h1A11.A11 VH / h1A11VL.1) VH: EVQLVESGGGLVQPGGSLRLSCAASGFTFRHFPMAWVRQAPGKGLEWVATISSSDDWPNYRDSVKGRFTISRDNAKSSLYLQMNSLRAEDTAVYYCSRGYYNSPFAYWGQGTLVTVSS VL: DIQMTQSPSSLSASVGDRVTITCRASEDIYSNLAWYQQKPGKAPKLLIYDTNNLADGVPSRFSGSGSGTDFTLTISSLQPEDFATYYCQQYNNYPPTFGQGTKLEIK
readoutUnit: M⁻¹ s⁻¹
kon: 116000

Moving on to the next binder.
*Q* Determine its reported kon: h1A11.B5 (antibody, V domains shown, also called h1A11.B5 VH / h1A11.B5 VL) VH: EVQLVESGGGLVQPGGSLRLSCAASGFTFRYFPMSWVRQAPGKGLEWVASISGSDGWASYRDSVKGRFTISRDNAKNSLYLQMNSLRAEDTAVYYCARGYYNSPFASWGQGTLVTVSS VL: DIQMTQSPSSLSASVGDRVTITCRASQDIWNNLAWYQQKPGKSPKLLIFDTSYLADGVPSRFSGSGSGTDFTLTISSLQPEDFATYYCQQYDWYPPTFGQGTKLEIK
*A* 98200

The values you see were collected from patent US20110217237A1.
